molecular target: human glucagon receptor (human) (UniProt P47871); assay: cell-based or functional assay
Sequence (P47871 26-477): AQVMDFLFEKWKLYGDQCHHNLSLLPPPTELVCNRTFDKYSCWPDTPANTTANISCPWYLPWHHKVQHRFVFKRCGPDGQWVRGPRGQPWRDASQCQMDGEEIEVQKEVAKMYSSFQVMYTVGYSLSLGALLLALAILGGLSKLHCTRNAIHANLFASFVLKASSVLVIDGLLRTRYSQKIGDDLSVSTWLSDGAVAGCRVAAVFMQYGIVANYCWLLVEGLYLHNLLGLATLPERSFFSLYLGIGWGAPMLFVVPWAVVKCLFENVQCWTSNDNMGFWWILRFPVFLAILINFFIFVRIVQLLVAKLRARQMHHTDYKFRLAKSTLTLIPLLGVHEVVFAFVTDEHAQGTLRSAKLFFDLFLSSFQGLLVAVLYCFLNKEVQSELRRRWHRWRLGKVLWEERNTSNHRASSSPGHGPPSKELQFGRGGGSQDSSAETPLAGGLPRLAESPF
Non-standard residues stand in square brackets, D forms with d. No end group written: not given here. αMeL = CC(C)C[C@](C)(N)C(=O)O; Aib = CC(C)(N)C(=O)O
Returns: string. Value is rule met if measured Relative cAMP EC50 is below 7 nM, and rule not met if it is greater than or equal to it.

{"binder": "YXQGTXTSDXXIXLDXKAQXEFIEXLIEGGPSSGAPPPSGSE (Aib, αMe residues, 4Pal, Orn, Me4Pal; acylated K; amide; synthetic construct; SITE 2: note = 2-Aminoisobutyric Acid; SITE 6: note = alpha-methyl-L-phenylalanine; SITE 10: note = 3-(4-Pyridyl)-L-alanine; SITE 11: note = alpha-methyl-L-serine; SITE 13: note = alpha-methyl-leucine; SITE 16: note = L-ornithine; SITE 17: note = Lysine is chemically modified th) [Example 1172]", "label.class": "rule met"}
{"binder": "YXQGTXTSDXXIXLDXKAAXEFIEXLIEGGPSSGAPPPSGTEX (synthetic construct; SITE 2: note = 2-Aminoisobutyric Acid; SITE 6: note = alpha-methyl-2-fluoro-L-phenylalanine; SITE 10: note = 3-(4-Pyridyl)-L-alanine; SITE 11: note = alpha-methyl-L-serine; SITE 13: note = alpha-methyl-leucine; SITE 16: note = L-ornithine; SITE 17: note = Lysine is chemically mo) [Example 726]", "label.class": "rule met"}
{"binder": "YXQGTFTSDXSQXLDKKAQXAFIEXLLEGGPSSGAPPPSGS (synthetic construct; SITE 2: note = 2-Aminoisobutyric Acid; SITE 10: note = 3-(4-Pyridyl)-L-alanine; SITE 13: note = alpha-methyl-leucine; SITE 17: note = Lysine is chemically modified through conjugation of the epsilon-amino group of the Lysine side chain with (2-[2-(2-Amino-ethoxy)-ethoxy]-acetyl)) [Example 910]", "label.class": "rule not met"}
{"binder": "YXQGTFTSDFSKXLDKKAQXQFIEYLLAGGPSSGEPPPSEG (Lys acylated; Aib, αMeL; C-terminal amide; synthetic construct; SITE 2: note = 2-Aminoisobutyric Acid; SITE 13: note = alpha-methyl-leucine; SITE 17: note = Lysine is chemically modified through conjugation of the epsilon-amino group of the Lysine side chain with (2-[2-(2-Amino-ethoxy)-ethoxy]-acetyl)-(gamma-Glu)-CO-(CH2) 16-CO2H; SITE 20: n) [Example 26]", "label.class": "rule met"}
{"binder": "YXQGTFTSDFSKXLDKKAQXAFIEYLLAGGPSSGEPPPGEG (Lys acylated; non-natural residues; C-amide; synthetic construct; SITE 2: note = 2-Aminoisobutyric Acid; SITE 13: note = alpha-methyl-leucine; SITE 17: note = Lysine is chemically modified through conjugation of the epsilon-amino group of the Lysine side chain with (2-[2-(2-Amino-ethoxy)-ethoxy]-acetyl)-(gamma-Glu)-CO-(CH2) 18-CO2H; SITE 20: n) [Example 31]", "label.class": "rule not met"}
{"binder": "Y[Aib]QGTFTSDYSK[αMeL]LDKKAQQAFIEYLIAGGPSSGEPPPSGD-NH2 (not fully specified (residue 17)) [Example 337]", "label.class": "rule met"}
{"binder": "YXQGTFTSDFSKXLDKKAQXAFIEWLLAGGPSSGEPPPSGE (Aib, αMeL; acylated Lys; C-term amide; synthetic construct; SITE 2: note = 2-Aminoisobutyric Acid; SITE 13: note = alpha-methyl-leucine; SITE 17: note = Lysine is chemically modified through conjugation of the epsilon-amino group of the Lysine side chain with (2-[2-(2-Amino-ethoxy)-ethoxy]-acetyl)-(gamma-Glu)-CO-(CH2) 18-CO2H; SITE 20: n) [Example 21]", "label.class": "rule not met"}
{"binder": "YXQGTFTSDFSXXLDKKAQXAFIEYLLEGGPSSGEPPPSGS (synthetic construct; SITE 2: note = 2-Aminoisobutyric Acid; SITE 12: note = L-ornithine; SITE 13: note = alpha-methyl-leucine; SITE 17: note = Lysine is chemically modified through conjugation of the epsilon-amino group of the Lysine side chain with (2-[2-(2-Amino-ethoxy)-ethoxy]-acetyl)-(gamma-Glu)) [Example 131]", "label.class": "rule met"}
{"binder": "YXQGTFTSDFSXXLDKKAQXAFIEWLLEGGESSGAPPPEGS (synthetic construct; SITE 2: note = 2-Aminoisobutyric Acid; SITE 12: note = L-ornithine; SITE 13: note = alpha-methyl-leucine; SITE 17: note = Lysine is chemically modified through conjugation of the epsilon-amino group of the Lysine side chain with (2-[2-(2-Amino-ethoxy)-ethoxy]-acetyl)-(gamma-Glu)) [Example 125]", "label.class": "rule met"}
{"binder": "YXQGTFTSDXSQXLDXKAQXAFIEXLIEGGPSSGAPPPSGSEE (Aib, 4Pal, αMeL, Orn, Me4Pal, αMeY; acylated Lys; C-terminal amide; synthetic construct; SITE 2: note = 2-Aminoisobutyric Acid; SITE 10: note = 3-(4-Pyridyl)-L-alanine; SITE 13: note = alpha-methyl-leucine; SITE 16: note = L-ornithine; SITE 17: note = Lysine is chemically modified through conjugation of the epsilon-amino group of the Lysine side chain with D-Glutami) [Example 1070]", "label.class": "rule not met"}
{"binder": "YXQGTXTSDXXIXLDXKAAXEFIEXLVEGGPSSGAPPPSGS (synthetic construct; SITE 2: note = 2-Aminoisobutyric Acid; SITE 6: note = alpha-methyl-2-fluoro-L-phenylalanine; SITE 10: note = 3-(4-Pyridyl)-L-alanine; SITE 11: note = alpha-methyl-L-serine; SITE 13: note = alpha-methyl-leucine; SITE 16: note = L-ornithine; SITE 17: note = Lysine is chemically mo) [Example 693 (SEQ ID NO: 699)]", "label.class": "rule met"}
{"binder": "YXQGTFTSDXSXXLDKKAQXAFIEYLIAGGPSSGAPPPSGSE (synthetic construct; SITE 2: note = 2-Aminoisobutyric Acid; SITE 10: note = 3-(4-Pyridyl)-L-alanine; SITE 12: note = L-ornithine; SITE 13: note = alpha-methyl-leucine; SITE 17: note = Lysine is chemically modified through conjugation of the epsilon-amino group of the Lysine side chain with (gamma-Gl)) [Example 1009]", "label.class": "rule met"}
{"binder": "YXQGTXTSDXSIXLDXKAQXEFIEXLLEGGPSSGAPPPSGE (Aib, αMeF(2F), 4Pal, Orn, (AEEA)2-γGlu-C18 diacid, amide; synthetic construct; SITE 2: note = 2-Aminoisobutyric Acid; SITE 6: note = alpha-methyl-2-fluoro-L-phenylalanine; SITE 10: note = 3-(4-Pyridyl)-L-alanine; SITE 13: note = alpha-methyl-leucine; SITE 16: note = L-ornithine; SITE 17: note = Lysine is chemically modified through conjugation of the epsil) [Example 613]", "label.class": "rule not met"}
{"binder": "YXQGTFTSDXSQXLDKKAQXAFIEYLIAGGPSSGAPPPEGS (synthetic construct; SITE 2: note = 2-Aminoisobutyric Acid; SITE 10: note = 3-(4-Pyridyl)-L-alanine; SITE 13: note = alpha-methyl-leucine; SITE 17: note = Lysine is chemically modified through conjugation of the epsilon-amino group of the Lysine side chain with (gamma-Glu)2-CO-(CH2)16-CO2H; SITE 20:) [Example 969]", "label.class": "rule met"}
